Source: patent US20230077155A1

Assay: Pharmacokinetics of mice, single intravenous and oral administration, plasma
Type: in vivo
Settings: mouse; male ICR mice, intravenous 0.5 mg/kg, plasma
Text: Study on Pharmacokinetics of Mice 1) Research purposes: In order to obtain the pharmacokinetic characteristics and blood-brain barrier of the tested compound in male ICR mice Six healthy male ICR mice (body weight range 18-22 g) were taken and divided into 2 groups and 3 mice/group. […]
VALUE_TYPE: half-life (min)
// units = min; emit number, no label

INSERT INTO results (molecular_string, assay_value) VALUES
  ('Cc1cc2c(c(C)c1NC(=O)CC1(C)CC1)CCN(c1ccc(C(F)(F)F)cc1)C2', 160),
  ('Cc1cc2c(c(C)c1NC(=O)CC1(C)CC1)CCN(c1ccc(F)cc1)C2', 51.6);

Please find the next compound below.
// query Given Cc1cc2c(c(C)c1NC(=O)CC(C)(C)C)CCN(c1ccc(F)cc1)C2 , respond with its half-life.
// result 59.4

* * *

Biological target: KCNQ2 potassium channel (CHO-KCNQ2 cells) (Homo sapiens, UniProt O43526)
Construct: expressed in transfected cells; host or cells: CHO cells stably expressing KCNQ2, kept under G418 selection
Sequence (O43526 whole entry): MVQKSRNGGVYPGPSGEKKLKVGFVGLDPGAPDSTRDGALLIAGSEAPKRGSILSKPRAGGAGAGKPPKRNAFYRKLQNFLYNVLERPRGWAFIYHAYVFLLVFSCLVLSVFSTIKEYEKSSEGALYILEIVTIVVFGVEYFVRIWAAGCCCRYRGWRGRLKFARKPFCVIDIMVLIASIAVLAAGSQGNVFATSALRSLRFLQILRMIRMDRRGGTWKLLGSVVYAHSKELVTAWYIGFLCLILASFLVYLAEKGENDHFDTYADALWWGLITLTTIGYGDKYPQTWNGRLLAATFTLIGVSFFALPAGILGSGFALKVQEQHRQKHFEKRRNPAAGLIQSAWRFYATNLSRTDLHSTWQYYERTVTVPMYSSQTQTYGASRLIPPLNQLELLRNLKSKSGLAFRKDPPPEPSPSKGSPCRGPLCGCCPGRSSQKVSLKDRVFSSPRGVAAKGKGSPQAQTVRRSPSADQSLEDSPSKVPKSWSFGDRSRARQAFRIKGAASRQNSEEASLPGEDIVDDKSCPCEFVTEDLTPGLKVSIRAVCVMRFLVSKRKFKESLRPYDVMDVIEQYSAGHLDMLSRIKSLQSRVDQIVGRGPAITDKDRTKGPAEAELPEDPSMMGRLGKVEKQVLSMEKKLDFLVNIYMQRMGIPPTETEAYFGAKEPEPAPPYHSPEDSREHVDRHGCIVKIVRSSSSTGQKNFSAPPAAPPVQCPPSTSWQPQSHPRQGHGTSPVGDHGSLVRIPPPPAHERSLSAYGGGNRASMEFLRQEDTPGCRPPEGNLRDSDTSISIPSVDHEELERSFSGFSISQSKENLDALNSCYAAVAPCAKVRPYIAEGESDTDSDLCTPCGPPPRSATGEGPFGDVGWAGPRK
Assay: Potassium ion channel opener activity test (FDSS/μCELL detection, FluxOR thallium flux)
Assay type: cell-based
Conditions: highest test concentration 100 μM
// classify: if (Maximum agonist rate (%) < 40%) condition met else condition not met

Before answering, review these 5 worked examples.
INSERT INTO results (molecular_string, subject_of_test, class_name) VALUES
  ('Cc1cc2c(c(C)c1NC(=O)CC(C)(C)C)CCN(c1ccc(F)cc1F)C2', 'KCNQ2 potassium channel (CHO-KCNQ2 cells) (Homo sapiens, UniProt O43526)', 'condition met'),
  ('Cc1cc2c(c(C)c1NC(=O)CC1(C(F)(F)F)CC1)CCN(c1ccc(F)cc1)C2', 'KCNQ2 potassium channel (CHO-KCNQ2 cells) (Homo sapiens, UniProt O43526)', 'condition met'),
  ('Cc1cc2c(c(C)c1NC(=O)CCC1CC1)CCN(c1ccc(F)cc1)C2', 'KCNQ2 potassium channel (CHO-KCNQ2 cells) (Homo sapiens, UniProt O43526)', 'condition met'),
  ('Cc1cc2c(c(C)c1NC(=O)CC1(C)CC1)CCCN(c1ccc(F)cc1)C2', 'KCNQ2 potassium channel (CHO-KCNQ2 cells) (Homo sapiens, UniProt O43526)', 'condition not met'),
  ('[2H]C1([2H])c2cc(C)c(NC(=O)CC3(C)CC3)c(C)c2CCN1c1ccc(C(F)(F)F)cc1', 'KCNQ2 potassium channel (CHO-KCNQ2 cells) (Homo sapiens, UniProt O43526)', 'condition met');

// query Lab note: confirm whether the reported Maximum agonist rate (%) for this compound is below 40%, equality not counting. compound: Cc1cc2c(c(C)c1NC(=O)CC1(C)CC1)CCN(c1ccc(Br)cc1)C2
// result condition met

// query # strict comparison: is reported Maximum agonist rate (%) < 40%? input = Cc1cc2c(c(C)c1NC(=O)CC1(C)CC1)CCN(c1ccccc1F)C2
// result condition met

* * *

Assay: Pharmacokinetics of rats, single intravenous and oral administration, plasma
Assay type: in vivo
Conditions: rat, po; male SD rats, gavage 5 mg/kg, plasma
VALUE_TYPE: Cmax (ng/mL)
The reply should be a number in ng/mL, with the unit left off.

Solved cases (2 shown):
INSERT INTO measurements (molecular_string, value_type, assay_value) VALUES
  ('Cc1cc2c(c(C)c1NC(=O)CC(C)(C)C)CCN(c1ccc(F)cc1F)C2', 'Cmax', 128),
  ('Cc1cc2c(c(C)c1NC(=O)CC1(C)CC1)CCN(c1ccc(F)cc1)C2', 'Cmax', 221);

Now consider a different compound.
// query Assign Cmax to the following record: Cc1cc2c(c(C)c1NC(=O)CC(C)(C)C)CCN(c1ccc(F)cc1)C2
// result 154

* * *

Test: Pharmacokinetics of mice, single intravenous and oral administration, plasma
Type: in vivo
Details: male ICR mice, gavage 10 mg/kg vs intravenous
Binary call on F: y from 20% upward, n beneath that.

Example cases with answers are listed next.
INSERT INTO assay_data (molecular_string, class_name) VALUES
  ('Cc1cc2c(c(C)c1NC(=O)CC1(C)CC1)CCN(c1ccc(C(F)(F)F)cc1)C2', 'y'),
  ('Cc1cc2c(c(C)c1NC(=O)CC(C)(C)C)CCN(c1ccc(F)cc1F)C2', 'y'),
  ('Cc1cc2c(c(C)c1NC(=O)CC1(C)CC1)CCN(c1ccc(F)cc1F)C2', 'n'),
  ('Cc1cc2c(c(C)c1NC(=O)CC1(C)CC1)CCN(c1ccc(F)cc1)C2', 'y');

Let's switch to this compound now.
// query Does Cc1cc2c(c(C)c1NC(=O)CC(C)(C)C)CCN(c1ccc(F)cc1)C2 have a reported F of at least 20%?
// result y

* * *

Listed compounds paired with reported Tmax
Test: Pharmacokinetics of mice, single intravenous and oral administration, plasma
Format: in vivo
Settings: mouse, po; male ICR mice, gavage 10 mg/kg, plasma
Numbers only here, please. The scale is min.

Study these solved cases before continuing.
INSERT INTO results (molecular_string, value_type, reading_unit, assay_value) VALUES
  ('Cc1cc2c(c(C)c1NC(=O)CC1(C)CC1)CCN(c1ccc(F)cc1)C2', 'Tmax', 'min', 19.8),
  ('Cc1cc2c(c(C)c1NC(=O)CC1(C)CC1)CCN(c1ccc(C(F)(F)F)cc1)C2', 'Tmax', 'min', 520),
  ('Cc1cc2c(c(C)c1NC(=O)CC(C)(C)C)CCN(c1ccc(F)cc1)C2', 'Tmax', 'min', 40.2),
  ('Cc1cc2c(c(C)c1NC(=O)CC1(C)CC1)CCN(c1ccc(F)cc1F)C2', 'Tmax', 'min', 15);

// query State its Tmax for this compound: Cc1cc2c(c(C)c1NC(=O)CC(C)(C)C)CCN(c1ccc(F)cc1F)C2
// result 15

* * *

Assay: Pharmacokinetics of rats, single intravenous and oral administration, plasma
Assay type: in vivo
Conditions: rat; male SD rats, intravenous 0.3 mg/kg, plasma
Description: Study on Pharmacokinetics of Rats 1) Research purpose: To obtain the pharmacokinetic characteristics of the compounds to be tested in male SD rats. Pharmacokinetic study: 6 healthy male SD rats (SPF grade) were divided into 2 groups and 3 rats/group. […]
VALUE_TYPE: Tmax (min)
Form entry: value (min) — number only.

Look over these answered cases.
INSERT INTO results (molecule, value_type, reading_unit, assay_value) VALUES
  ('Cc1cc2c(c(C)c1NC(=O)CC(C)(C)C)CCN(c1ccc(F)cc1F)C2 [Compound B]', 'Tmax', 'min', 4.8),
  ('Cc1cc2c(c(C)c1NC(=O)CC1(C)CC1)CCN(c1ccc(F)cc1)C2 [Compound I]', 'Tmax', 'min', 4.8);

// query Could you please provide reported Tmax for Cc1cc2c(c(C)c1NC(=O)CC(C)(C)C)CCN(c1ccc(F)cc1)C2 [Compound A] ? Thanks!
// result 4.8

* * *

Experiment: Pharmacokinetics of mice, single intravenous and oral administration, plasma
Type: in vivo
Conditions: mouse; male ICR mice, intravenous 0.5 mg/kg, plasma
From the text: Study on Pharmacokinetics of Mice 1) Research purposes: In order to obtain the pharmacokinetic characteristics and blood-brain barrier of the tested compound in male ICR mice Six healthy male ICR mice (body weight range 18-22 g) were taken and divided into 2 groups and 3 mice/group. […]
Overview of recorded AUC(0-t) for various compounds
Could you write the number and then its unit?

INSERT INTO assay_data (molecular_string, assay_value) VALUES
  ('Cc1cc2c(c(C)c1NC(=O)CC1(C)CC1)CCN(c1ccc(F)cc1)C2', '107 ng·h/mL');

// query Provide AUC(0-t) value for the following compound: Cc1cc2c(c(C)c1NC(=O)CC1(C)CC1)CCN(c1ccc(C(F)(F)F)cc1)C2
// result 357 ng·h/mL

// query Query AUC(0-t) for Cc1cc2c(c(C)c1NC(=O)CC(C)(C)C)CCN(c1ccc(F)cc1)C2
// result 117 ng·h/mL

* * *

Target: KCNQ2 potassium channel (CHO-KCNQ2 cells) (Homo sapiens, UniProt O43526)
Assay: Potassium ion channel opener activity test (FDSS/μCELL detection, FluxOR thallium flux)
VALUE_TYPE: EC50 (nM)
Just the number please, in nM, no unit attached.

Reference set, count: 3
INSERT INTO results (molecule, subject_of_test, assay_value) VALUES
  ('Cc1cc2c(c(C)c1NC(=O)CC1(C)CC1)CCN(c1cccc(F)c1)C2 [Compound Z]', 'KCNQ2 potassium channel (CHO-KCNQ2 cells) (Homo sapiens, UniProt O43526)', 94),
  ('Cc1cc2c(c(C)c1NC(=O)CC(C)(C)C)CCN(c1ccc(F)cc1F)C2 [Compound B]', 'KCNQ2 potassium channel (CHO-KCNQ2 cells) (Homo sapiens, UniProt O43526)', 160),
  ('Cc1cc2c(c(C)c1NC(=O)CCC1CC1)CCN(c1ccc(F)cc1)C2 [Compound A7]', 'KCNQ2 potassium channel (CHO-KCNQ2 cells) (Homo sapiens, UniProt O43526)', 400);

// query Could you please provide reported EC50 for Cc1cc2c(c(C)c1NC(=O)CC1(C)CC1)CCN(c1cccc(C(F)(F)F)c1)C2 [Compound A4] ? Thanks!
// result 270

// query Quickly give me recorded EC50 for Cc1cc2c(c(C)c1NC(=O)CC1(C)CC1)CCN(c1ccc(I)cc1)C2 [Compound X]
// result 72

// query Dear colleague, please send me the reported EC50 for Cc1cc2c(c(C)c1NC(=O)CC1(C)CC1)CCN(c1ccc(Cl)cc1)C2 [Compound W] when you can.
// result 180

// query Provide EC50 value for the following molecule: Cc1cc2c(c(C)c1NC(=O)CC1(C)CC1)CCCN(c1ccc(F)cc1)C2 [Compound A2]
// result 130

// query Using known records, supply EC50 for Cc1cc2c(c(C)c1NC(=O)CC1(C)CC1)CCN(c1ccc(C(F)(F)F)cc1)C2 [Compound P]
// result 34
